For each of the molecules below, state its ED50.
Biological target: Serotonin 3 (5-HT3) receptor (Rattus norvegicus) (UniProt P35563+Q9JJ16)
Experiment: In vivo inhibitory concentration after 5 minutes against 5-hydroxytryptamine 3 receptor induced bradycardia [bezold-jarisch (B-J) reflex test] in rat by intravenous administration
Format: functional, organism-based
One number for each entry, in mg/kg.

Consider the reported ED50 for these molecules:
| Molecule | Measured On | Unit Descriptor | ED50 |
| --- | --- | --- | --- |
| CN1C2CCC1CC(OC(=O)c1cnc3ccccc3c1)C2 (centres undefined) | Serotonin 3 (5-HT3) receptor (Rattus norvegicus) (UniProt P35563+Q9JJ16) | mg/kg | 0.37 |
| CN1C2CCC1CC(NC(=O)c1c(O)c3ccccc3n(-c3ccccc3)c1=O)C2 (centres undefined) | Serotonin 3 (5-HT3) receptor (Rattus norvegicus) (UniProt P35563+Q9JJ16) | mg/kg | 0.073 |
| CN1C2CCC1CC(OC(=O)c1cnc3ccccc3c1O)C2 (centres undefined) | Serotonin 3 (5-HT3) receptor (Rattus norvegicus) (UniProt P35563+Q9JJ16) | mg/kg | 0.0017 |
| CN1C2CCC1CC(NC(=O)c1c(O)nc3ccccc3c1O)C2 (centres undefined) | Serotonin 3 (5-HT3) receptor (Rattus norvegicus) (UniProt P35563+Q9JJ16) | mg/kg | 0.22 |
| Cc1nccn1CC1CCc2c(c3ccccc3n2C)C1=O (centres undefined) | Serotonin 3 (5-HT3) receptor (Rattus norvegicus) (UniProt P35563+Q9JJ16) | mg/kg | 0.021 |
| Cc1nc2ccccc2c(O)c1C(=O)NC1CC2CCC(C1)N2C (centres undefined) | Serotonin 3 (5-HT3) receptor (Rattus norvegicus) (UniProt P35563+Q9JJ16) | mg/kg | 0.015 |
| CCCCn1c(=O)c(C(=O)NC2CC3CCC(C2)N3C)c(O)c2ccccc21 (centres undefined) | Serotonin 3 (5-HT3) receptor (Rattus norvegicus) (UniProt P35563+Q9JJ16) | mg/kg | 0.29 |

Turning to the following molecule.
Request: State ED50 (Serotonin 3 (5-HT3) receptor (Rattus norvegicus) (UniProt P35563+Q9JJ16)) of CN1C2CCCC1CC(NC(=O)c1nn(C)c3ccccc13)C2 (centres undefined) .
Result: 0.019
